test system: Hepatotoxicity; assay: FDA HLAED, liver enzyme composite activity; details: human
I'd be grateful if you could share measured Composite Activity - Marginal for these entries.
Answers are plain numbers.

molecule | assayValue
CCCCCCCCCC(=O)OCCN1CCN(CCCN2c3ccccc3Sc3ccc(C(F)(F)F)cc32)CC1 [FLUPHENAZINE DECANOATE] | 0
CCOC(=O)[C@H](CCc1ccccc1)N[C@@H](C)C(=O)N1[C@H](C(=O)O)C[C@@H]2CCC[C@@H]21 | 0
CCOC(=O)[C@H](CCc1ccccc1)N[C@@H](C)C(=O)N1[C@H](C(=O)O)C[C@H]2CCCC[C@@H]21 | 0
CC(C(=O)O)c1ccc(C(=O)c2cccs2)cc1 (stereo not drawn) | 0
CC(=O)O[C@]1(C(C)=O)CC[C@H]2[C@@H]3C=C(C)C4=CC(=O)CC[C@]4(C)[C@H]3CC[C@@]21C [MEGESTROL ACETATE] | 0

For every item below, please supply its Composite Activity - Marginal.
1. CCc1cccc2c3c([nH]c12)C(CC)(CC(=O)O)OCC3 (stereo not drawn)
2. CC(C)Cc1ccc(C(C)C(=O)O)cc1 (stereo not drawn)
3. CC[C@H](C)C(=O)O[C@H]1C[C@H](O)C=C2C=C[C@H](C)[C@H](CC[C@@H](O)C[C@@H](O)CC(=O)O)[C@H]21

1: 0; 2: 3; 3: 1

Attribution: ChEMBL document CHEMBL1697781
